Readings of composite z-score for the listed compounds
test: small-molecule microarray binders of probe aShh, primary screen, biochemical, biotinylated probe, 635/667 nm fluorescence (AID 1114); details: higher = more signal;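 note: probe is biotin-labelled aShh protein from a stem cell growth factor screen; measures binding of labelled protein to compounds printed on the slide; score merges feature fluorescence at 667 nm with signal-to-noise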

Looking up COc1cc2c(cc1OC)CN(C(=O)[C@H]1[C@@H]3C(=O)O[C@@H](c4ccccc4)[C@@H](c4ccccc4)N3[C@@H](c3ccc(O)cc3)[C@]13C(=O)Nc1ccc(C#CC4(O)CCCCCC4)cc13)CC2 , I see its composite z-score listed as 0.382

Looking up COc1cc2c(cc1OC)CN(C(=O)[C@@H]1[C@H]3C(=O)O[C@H](c4ccccc4)[C@H](c4ccccc4)N3[C@H](c3ccccc3OCCO)[C@@]13C(=O)Nc1ccccc13)CC2 , I see its composite z-score listed as -0.0213

Looking up CCCNC(=O)[C@@]1(Sc2ccc(C)cc2)CC(=O)N(Cc2ccccc2Cl)[C@@H]1c1ccc(CO)cc1 , I see its composite z-score listed as 0.0407

----------
Readings of composite z-score for the listed molecules
test system: wheat germ agglutinin (Triticum aestivum), Alexa647-labelled; assay: wheat germ agglutinin binders on compound microarrays, profiling panel, artefact control for SMM control-protein annotation, biochemical, small-molecule microarray, 635/667 nm fluorescence (AID 1140); details: WGA-A647 binding, 635 nm fluorescence, higher = more signal;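 note: score merges 667 nm feature emission with signal to noise over triplicate slides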
// no unit string in output, number only

Record excerpt, results attached:
molecule	composite z-score
Cc1ccc(S[C@]2(C(=O)NC(C)C)CC(=O)N(C3Cc4ccccc4C3)[C@@H]2c2ccc(CO)cc2)cc1	0.923
CCN1C(C)=C(C(=O)OC)[C@@H](c2ccccc2)N2C(=O)[C@](O)(C(=O)OC)[C@@H](c3ccccc3)C(C(=O)c3ccccc3)=C12	0.593
Cc1ccc(N2C(=O)c3ccccc3[C@](C)(C(=O)O)[C@@H]2c2ccc(CO)cc2)nc1	-0.576
O=C/C=C/c1ccccc1Cl	0.687
N#Cc1ccc(NN2C(C(O)CCc3ccccc3)C=CC3C(=O)N(c4ccccc4)C(=O)C32)cc1 (stereo not given)	1.34

Looking up C=CCNC(=O)[C@H]1[C@@H]2C(=O)O[C@@H](c3ccccc3)[C@@H](c3ccccc3)N2[C@@H](c2ccccc2OCCO)[C@]12C(=O)N(C(=O)OCCOC)c1ccc(C#CCNC(N)=O)cc12 , I see its composite z-score listed as 1.11

Looking up Cc1ccccc1C(O)C1C=CC2C(=O)N(c3ccccc3)C(=O)C2N1Nc1ccc(C#N)cc1 (stereo not given) , I see its composite z-score listed as 1

Looking up CCCC/C=C/[C@H]([C@@H](O)Cc1ccccc1)N(CC#Cc1ccccc1)Cc1ccccc1Br , I see its composite z-score listed as -0.788

Looking up C=C(C)[C@@H]1CC=C(C(O)C2C=CC3C(=O)NC(=O)C3N2Nc2ccccn2)CC1 (stereo not given in full) , I see its composite z-score listed as 0.842

Looking up C[N+](C)(C)CCCC[C@@H]1NC(=O)[C@H]2C[C@@H](C(=O)NCc3ccc(F)cc3)[C@@H](c3cccc(OCCO)c3)N2C1=O , I see its composite z-score listed as 0.0979

Looking up COCCOC(=O)N1C(=O)[C@@]2(c3cc(C#CCNC(N)=O)ccc31)[C@H](c1ccc(OCCO)cc1)N1[C@H](c3ccccc3)[C@H](c3ccccc3)OC(=O)[C@H]1[C@@H]2C(=O)N1CCCCCCC1 , I see its composite z-score listed as 0.884

Looking up CCN1C(C)=C(C(=O)OC)[C@@H](c2ccccc2)N2C(=O)[C@@]3(C(=O)OC)O[C@@]12[C@@H]1C(=O)CCC[C@@H]13 , I see its composite z-score listed as -1.05

Looking up C=CC[C@]1(C(=O)O)N=C(c2ccc(OCCCO)cc2)O[C@H]1c1ccccc1 , I see its composite z-score listed as 1.25

Looking up NC(=O)NCC#Cc1ccc2c(c1)[C@]1(C(=O)N2)[C@H](C(=O)N2CCCCCCC2)[C@H]2C(=O)O[C@H](c3ccccc3)[C@H](c3ccccc3)N2[C@@H]1c1ccccc1OCCO , I see its composite z-score listed as 1.59

Looking up CO[C@H]1COC(=O)[C@H](C)COC(=O)[C@H](Cc2ccccc2)NC(=O)CC=C[C@H]1C , I see its composite z-score listed as -1.5

----------
Readings of composite z-score for the listed compounds
assay: COS7 lysate on small-molecule microarray, probe aHis, 635 nm (AID 1123); conditions: COS7 cell lysate, fluorescence, higher = more signal;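 note: z-score combines 667nm fluorescence intensity with signal-to-noise per printed compound spot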
// no unit string in output, number only

Looking up COc1ccc(C(=O)Nc2ccc(CN3C(=O)[C@]4(O[C@H](CCn5cc(CCO)nn5)[C@@H]([Si](C)(C)c5ccc(OC)cc5)[C@@H]4C)c4ccccc43)cc2)cc1 , I see its composite z-score listed as 0.88

Looking up C=CCC(OC(C)=O)[C@@H]1[C@@H](N(Cc2cccc3ccccc23)C(=O)Cc2ccc(F)cc2)c2cc(OCCCO)ccc2N1C(=O)Cc1ccc2ccccc2c1 (some centres undefined) , I see its composite z-score listed as 0.293

Looking up C=C(CCCC)C(=O)CC[C@@H](OC(=O)c1cccnc1)c1cccc(OCCO)c1 , I see its composite z-score listed as 0.0383

Looking up CC(C)CN1C(=O)[C@@]2(Cc3ccccc31)c1ccccc1C(=O)N(C1CCCCC1)[C@H]2c1ccc(CO)cc1 , I see its composite z-score listed as 0.878

Looking up O=C(N1CCCCC1)[C@@]1(CCS(=O)(=O)c2ccccc2)N=C(c2ccc(OCCCO)cc2)O[C@H]1c1ccccc1 , I see its composite z-score listed as 3.28

Looking up C=CCc1cccc([C@H]2N[C@H](C(=O)O)CC[C@@H]2C)c1 , I see its composite z-score listed as -0.31

Looking up CC(C)[Si](OCC[C@H]1O[C@]2(C(=O)N(Cc3ccccc3)c3ccccc32)[C@@H](C)[C@@H]1[Si](C)(C)O)(C(C)C)C(C)C , I see its composite z-score listed as 0.379

Looking up C=C(C(=O)CC[C@H](OC(=O)c1ccccc1-c1ccccc1C(=O)O)c1ccc(CO)o1)C(C)C , I see its composite z-score listed as 0.23

----------
target: Focal adhesion kinase 1 (Homo sapiens) (UniProt Q05397); assay: small-molecule microarray binders of FAK, primary screen, biochemical, 635/667 nm fluorescence, BSA, DTT (AID 1130); conditions: PTK2 binding, 635 nm fluorescence, higher = more signal;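 note: composite of spot emission at 667 nm and signal to noise over triplicate slides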
Sequence (Q05397 whole entry, looked up): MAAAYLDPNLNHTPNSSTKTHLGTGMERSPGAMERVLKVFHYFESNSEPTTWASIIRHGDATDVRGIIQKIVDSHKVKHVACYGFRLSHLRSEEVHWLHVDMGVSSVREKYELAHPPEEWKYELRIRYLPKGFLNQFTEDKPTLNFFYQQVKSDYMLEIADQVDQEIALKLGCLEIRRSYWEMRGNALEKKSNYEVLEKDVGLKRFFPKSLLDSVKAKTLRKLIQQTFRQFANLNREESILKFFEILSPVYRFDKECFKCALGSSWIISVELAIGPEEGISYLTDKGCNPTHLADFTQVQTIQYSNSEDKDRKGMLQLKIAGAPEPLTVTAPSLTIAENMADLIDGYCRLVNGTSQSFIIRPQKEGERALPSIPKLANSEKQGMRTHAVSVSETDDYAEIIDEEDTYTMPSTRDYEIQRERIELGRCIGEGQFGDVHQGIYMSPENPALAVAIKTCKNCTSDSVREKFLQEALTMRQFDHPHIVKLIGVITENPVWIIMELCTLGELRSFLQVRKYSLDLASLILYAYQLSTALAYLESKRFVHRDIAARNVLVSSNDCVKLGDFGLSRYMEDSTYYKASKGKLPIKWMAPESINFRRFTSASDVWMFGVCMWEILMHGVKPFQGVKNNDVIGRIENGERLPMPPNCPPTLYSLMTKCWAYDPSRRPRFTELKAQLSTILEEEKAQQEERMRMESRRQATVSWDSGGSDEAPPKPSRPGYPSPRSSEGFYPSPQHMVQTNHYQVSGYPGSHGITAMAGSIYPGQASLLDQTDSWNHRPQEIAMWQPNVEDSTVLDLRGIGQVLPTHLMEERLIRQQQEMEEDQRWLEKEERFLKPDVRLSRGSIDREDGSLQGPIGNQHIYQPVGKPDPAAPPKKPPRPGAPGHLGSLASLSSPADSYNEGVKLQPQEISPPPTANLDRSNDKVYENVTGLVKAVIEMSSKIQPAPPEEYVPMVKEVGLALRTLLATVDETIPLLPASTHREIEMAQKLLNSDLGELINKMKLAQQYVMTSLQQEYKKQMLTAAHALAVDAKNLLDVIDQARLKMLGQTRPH
Everything with composite z-score lower than 0.3 is -1; everything else, including exactly 0.3, is 1.

Field: example entries. Status: answers known.
molecule	label-class
O=C1O[C@@H](c2ccccc2)[C@@H](c2ccccc2)N2[C@@H](c3ccccc3OCCO)[C@]3(C(=O)Nc4ccc(C#CC5=CCCCC5)cc43)[C@@H](C(=O)O)[C@H]12	1
C[C@H]1COC(=O)[C@@H]2CCCN2C(=O)[C@@H](C)COC(=O)[C@@H]2CCCN2C1=O	-1
O=C(N1CCCCC1)[C@@]1(CCS(=O)(=O)c2ccccc2)N=C(c2ccc(OCCCO)cc2)O[C@H]1c1ccccc1	1
C=C(COC)C(=O)CC[C@H](OC(=O)c1ccccc1-c1ccccc1C(=O)O)c1cccc(OCCO)c1	1
CC(=O)NCCCC[C@@H]1NC(=O)[C@@H]2C[C@H](C(=O)NCCCCCCN(C)C)[C@H](c3ccc(O)cc3)N2C1=O	1

State whether the measured composite z-score reaches 0.3, counting equality as reaching it, for O=[N+]([O-])c1ccc(C[n+]2ccc3ccc(O)cc3c2)o1
1

State whether the measured composite z-score reaches 0.3, counting equality as reaching it, for COC(=O)C1=CC(c2ccc(CO)cc2)=CC(c2cccs2)N(Cc2cccc(OC(F)(F)F)c2)C=C1C(=O)OC (configuration not stated)
1

State whether the measured composite z-score reaches 0.3, counting equality as reaching it, for C=C(COC)/C(=C/C[C@H](OC(C)=O)c1ccc(OCCO)cc1)c1cnc2ccccc2c1
1

State whether the measured composite z-score reaches 0.3, counting equality as reaching it, for COc1ccc([Si](C)(C)[C@@H]2[C@@H](CC(=O)N(CCO)Cc3ccccc3)O[C@]3(C(=O)N(Cc4cccc(N5CCC5=O)c4)c4ccccc43)[C@H]2C)cc1
1

----------
experiment: small-molecule binders of probe aInhba, primary screen, biochemical, small-molecule microarray, 635/667 nm fluorescence (AID 1148); settings: higher = more signal;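 note: score merges 667nm spot fluorescence with signal-to-noise for antibody binding to printed compounds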
Everything with composite z-score lower than 0.2 is not satisfied; everything else, including exactly 0.2, is satisfied.

Field: example entries. Status: answers known.
molecule	label-class
CCOC(=O)[C@H]1C/C=C/C[C@H](C(=O)OCC)C(=O)O[C@H]2[C@@H](OC)O[C@H](CO)[C@@H](OC(=O)Nc3ccc(Br)cc3)[C@@H]2OC1=O	not satisfied
O=C(NCC(O)CO)[C@]1(Cc2ccccc2)N=C(c2ccc(OCCCO)cc2)O[C@@H]1c1ccccc1 (stereo not given in full)	satisfied
O=C1O[C@H](c2ccccc2)[C@H](c2ccccc2)N2[C@H]1[C@@H](C(=O)NC[C@H](O)c1ccccc1)[C@]1(C(=O)Nc3ccc(C#CC4=CCCCC4)cc31)[C@H]2c1ccc(OCCO)cc1	not satisfied
COC(=O)C[C@H]1O[C@]2(C(=O)N(Cc3ccccc3)c3ccc(I)cc32)[C@@H](C)[C@@H]1[Si](C)(C)c1ccc(OC)cc1	not satisfied

State whether the measured composite z-score reaches 0.2, counting equality as reaching it, for CN1C(=O)C2C=CC(C(O)c3ccc(N(C)C)cc3)N(Nc3ccc([N+](=O)[O-])cc3[N+](=O)[O-])C2C1=O (stereo not given)
satisfied

State whether the measured composite z-score reaches 0.2, counting equality as reaching it, for COC(=O)C1=CC(c2ccc(CO)cc2)=CC(C2CC2)N(Cc2sc3ccccc3c2Cl)C=C1C(=O)OC (stereo not given)
satisfied

State whether the measured composite z-score reaches 0.2, counting equality as reaching it, for COc1ccc(C(O)C2C=CC3C(=O)N(C)C(=O)C3N2N2CCCCC2)cc1OCc1ccccc1 (stereo not given)
not satisfied

State whether the measured composite z-score reaches 0.2, counting equality as reaching it, for [N-]=[N+]=Nc1ccccc1C[C@@]1(C(=O)N2CCOCC2)N=C(c2ccc(OCCCO)cc2)O[C@@H]1c1ccccc1N=[N+]=[N-]
not satisfied

State whether the measured composite z-score reaches 0.2, counting equality as reaching it, for CCOC(=O)C[C@H]1[C@H](OC(=O)c2cc3ccccc3oc2=O)[C@@H](NC(=O)c2ccc3ccccc3c2)c2cc(OCCCO)ccc2N1C(=O)c1ccc2ccccc2n1
not satisfied

State whether the measured composite z-score reaches 0.2, counting equality as reaching it, for C[N+](C)(C)CCCCNC(=O)[C@@H]1C[C@@H]2C(=O)N3CCC[C@H]3C(=O)N2[C@@H]1c1cccc(OCCO)c1
not satisfied

State whether the measured composite z-score reaches 0.2, counting equality as reaching it, for CCCN1C(=O)[C@@]2(CCS(=O)(=O)c3ccccc3)N=C(c3ccc(OCCCO)cc3)O[C@H]2c2ccccc21
not satisfied

State whether the measured composite z-score reaches 0.2, counting equality as reaching it, for C#CCNC(/C=C/c1ccccc1)CO (stereo not given)
not satisfied

State whether the measured composite z-score reaches 0.2, counting equality as reaching it, for CC(=O)NCCCC[C@@H]1NC(=O)[C@H]2C[C@@H](C(=O)NCCCCCCN(C)C)[C@@H](c3cccc(OCCO)c3)N2C1=O
satisfied

State whether the measured composite z-score reaches 0.2, counting equality as reaching it, for C=CCN1C(=O)[C@@]2(Cc3ccccc3)N=C(c3ccc(OCCCO)cc3)O[C@H]2c2ccccc21
satisfied

State whether the measured composite z-score reaches 0.2, counting equality as reaching it, for CC(C)[Si](OCC[C@H]1O[C@]2(C(=O)N(Cc3ccccc3)c3ccccc32)[C@@H](C)[C@@H]1[Si](C)(C)O)(C(C)C)C(C)C
not satisfied
